Where do the numbers come from? From patent US7074831B2.

Tested on: human T lymphoblast cell line (Jurkat)
MEASUREMENT_NOTES: Inhibition of T-cell proliferation (3H-TdR incorporation)
Assay type: cell-based
CONDITION_SET: Homo sapiens, 72 h; Jurkat cells, 3 days; read-out: Inhibition of T-cell proliferation in vitro. IC50
Label Met when IC50 < 0.5 µM; otherwise Not met.

CCCNc1ccccc1COc1ccc(NC(=O)CC)c(C(=O)O)c1 : Met

Lookup: IC50 under 0.5 µM? Item: CCC(=O)Nc1ccc(NCc2ccccc2C(F)(F)F)cc1C(=O)O
Found: Not met

Lookup: IC50 under 0.5 µM? Item: CCC(=O)Nc1ccc(OCc2ccccc2OC(F)(F)F)cc1C(=O)O
Found: Met

Lookup: IC50 under 0.5 µM? Item: CCC(=O)Nc1ccc(COc2ccccc2C(F)(F)F)cc1C(=O)O
Found: Not met

Lookup: IC50 under 0.5 µM? Item: COc1ccc(OC)c(CCc2ccc(NC(C)=O)c(C(=O)O)c2)c1 [Compound H, reference compound]
Found: Not met
